molecular target: E85A BfrB (Pseudomonas aeruginosa, UniProt Q9HY79 1-158, E85A); assay: SPR
attribute.measured: pKd
pKd is a log-scale quantity: -log10 of the concentration expressed in molar.

Ask | Quick one: pKd of wt Bfd (C43S mutant of P. aeruginosa bacterioferritin-associated ferredoxin) (natural protein, Pseudomonas aeruginosa) MYVCLCQGVTDNQIRDAIYEGCCSYREVREATGVGTQCGKCASLAKQVVRETLNDLQSAQPVPAFGTTAFVAA ?
Reply | 3.23
